Provide the reported OD 450 nm of each item.
- system_tested: T1, Human hepcidin peptide (hepcidin-25) (human)
- T1 construct: Synthetic 25 aa peptide; also called hep-25; Hep-25
- T1 peptide: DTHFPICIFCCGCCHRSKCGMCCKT
- assay_text: titration affinity ELISA, hepcidin 100 ng/well on Nunc Immobilizer Amino plate, CHO supernatant; antibody 100 ng/ml

{"columns": ["binder", "OD 450 nm"],
 "data": [
  ["BAP070-01 (human-mouse chimeric MAb 583) (antibody, human IgG1, kappa, V domains shown, used as CHO cell supernatant; also called BAP070-1) VH: QIQLVQSGPELKKPGETVKISCKASGYTFTNYGMNWVKQAPGKGLKWMGWINTYTGEPTYADDFKGRFAFSLETSASTAYLQINNLKNEDTATYFCTTYATSWYWGQGTLVTVSS VL: DIVLTQSPASLAVSLGQRATISCRASESVDSYGNSFMHWYQQKPGQPPKLLIYRASNLESGIPARFSGSGSRTDFTLTINPVEADDVATYYCQQSNEDLTFGQGTKVEIKR", "3.33 OD450"]
]}

Prompt line: Annotate the binder BAP070-hum06 (antibody, IgG1, V domains shown, Expressed as soluble IgG1 in CHO cells, tested as supernatant; The entries stop inside FR4) VH: EVQLVQSGAEVKKPGESLRISCKGSGYTFTNYGMNWIRQPPGKGLEWIGWINTYTGEPTYADDFKGRVTISADKSISTAYLQWSSLKASDTAMYYCTTYATSWYWGQG VL: AIQLTQSPSSLSASVGDRVTITCRASESVDSYGNSFMHWYQQKPGQAPRLLIYRASNLESGVPSRFSGSGSGTDFTFTISSLQPEDIATYYCQQSNEDLTFG with its measured OD 450 nm.
Response line: 3.25 OD450
